Recorded IC50 for the following compounds
- TEST SYSTEM: human FOXO1 (constitutively active form Thr24Ala, Ser256Ala, Ser319Ala) (Homo sapiens, UniProt Q12778, S256A/S319A/T24A)
- Sequence (Q12778 whole entry T24A/S256A/S319A): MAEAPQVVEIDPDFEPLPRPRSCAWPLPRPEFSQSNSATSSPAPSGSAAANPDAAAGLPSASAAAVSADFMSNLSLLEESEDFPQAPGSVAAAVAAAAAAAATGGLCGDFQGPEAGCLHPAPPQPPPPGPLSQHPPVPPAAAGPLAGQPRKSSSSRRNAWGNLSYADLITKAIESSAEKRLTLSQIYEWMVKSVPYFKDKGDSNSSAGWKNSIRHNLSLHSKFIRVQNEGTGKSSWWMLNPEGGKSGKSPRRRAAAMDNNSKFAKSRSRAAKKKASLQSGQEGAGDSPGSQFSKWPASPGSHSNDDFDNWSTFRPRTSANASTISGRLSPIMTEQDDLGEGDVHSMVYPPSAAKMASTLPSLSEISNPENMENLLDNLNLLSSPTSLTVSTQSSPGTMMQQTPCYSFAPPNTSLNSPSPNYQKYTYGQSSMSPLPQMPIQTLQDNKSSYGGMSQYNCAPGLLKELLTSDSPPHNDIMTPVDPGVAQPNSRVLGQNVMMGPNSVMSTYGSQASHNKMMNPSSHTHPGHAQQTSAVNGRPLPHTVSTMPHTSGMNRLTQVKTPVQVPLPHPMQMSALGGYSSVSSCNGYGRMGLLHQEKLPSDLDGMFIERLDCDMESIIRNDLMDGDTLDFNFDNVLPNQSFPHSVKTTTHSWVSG
- PROCEDURE SUMMARY: FOXO1 inhibitor activity assay: cell-based transcriptional (luciferase) reporter assay in HEK293 cells
- CONDITION SUMMARY: HEK293 cells transfected with insulin response element firefly luciferase reporter, FOXO1 and Renilla luciferase; 10-point dose response 50 μM to 2.5 nM; 24 hours
Counter-ions that a name gives are not always drawn.

Look over these answered cases.
{"columns": ["COMPOUND", "IC50"],
 "data": [
  ["Cn1nc(NC(=O)c2ccc(N3CCC(O)(CCO)CC3)nc2)cc1-c1nc2ccccc2[nH]1", "< 100 nM"],
  ["Cn1nc(NC(=O)c2ccc(N3CCC(N4CCOCC4)CC3)nn2)cc1-c1nc2ccccc2[nH]1", "300 to 1000 nM"]
]}

Form field: reported IC50 of "O=C(Nc1cc(-c2nc3cc(Br)ccc3[nH]2)[nH]n1)c1ccc(N2CCC(CO)CC2)nc1"
> 1000 nM

Form field: reported IC50 of O=C(O)CCN1CCN(c2ccc(C(=O)Nc3cc(-c4nc5ccccc5[nH]4)[nH]n3)cc2)CC1 [Compound A-197, hydrochloride]
> 1000 nM

---

- TEST SYSTEM: human FOXO1 (constitutively active form Thr24Ala, Ser256Ala, Ser319Ala) (Homo sapiens, UniProt Q12778, S256A/S319A/T24A)
- PROCEDURE SUMMARY: FOXO1 inhibitor activity assay: cell-based transcriptional (luciferase) reporter assay in HEK293 cells
- CONDITION SUMMARY: HEK293 cells transfected with insulin response element firefly luciferase reporter, FOXO1 and Renilla luciferase; 10-point dose response 50 μM to 2.5 nM; 24 hours
pIC50: −log10 of the molar value.
Recorded pIC50 for the following compounds

Look over these answered cases.
{"columns": ["COMPOUND", "pIC50"],
 "data": [
  ["CN1CCN(c2ccc(C(=O)Nc3cc(-c4nc5ccccc5[nH]4)n(C)n3)cc2)CC1 [Compound A-212]", "> 7.00"],
  ["CN1CCN(c2ccc(C(=O)Nc3cc(-c4nc5ccccc5[nH]4)[nH]n3)cc2)CC1=O [Compound A-242]", "6.52 to 7.00"],
  ["COc1ccc(C(=O)Nc2cc(-c3nc4ccccc4[nH]3)no2)cc1Cl [Compound A-30]", "< 6.00"],
  ["CN(C)C1CCN(c2ccc(C(=O)Nc3cc(-c4nc5cc(F)ccc5[nH]4)n(C)n3)cn2)CC1 [Compound A-133]", "6.52 to 7.00"],
  ["COc1cc(F)c2[nH]c(-c3cc(NC(=O)c4ccc(N5CCN(C(C)=O)CC5)nc4)nn3C)nc2c1 [Compound A-240]", "> 7.00"],
  ["Cn1nc(NC(=O)c2ccc(N3CCC(O)CC3)nc2)cc1-c1nc2cccc(F)c2[nH]1 [Compound A-134]", "6.52 to 7.00"],
  ["CC(=O)N(C)C1CCN(c2ccc(C(=O)Nc3cc(-c4nc5ccccc5[nH]4)[nH]n3)cn2)CC1 [Compound A-170]", "6.52 to 7.00"],
  ["Cn1nc(NC(=O)c2ccc(N3CCN(C4COC4)CC3)nc2)cc1-c1nc2cc(F)ccc2[nH]1 [Compound A-160]", "6.00 to 6.52"],
  ["CC(=O)N1CCN(c2ccc(C(=O)Nc3cc(-c4nc5ccccc5[nH]4)n(C)n3)cn2)CC1 [A-231]", "> 7.00"],
  ["CN1CCN(c2cnc(C(=O)Nc3cc(-c4nc5ccccc5[nH]4)[nH]n3)cn2)CC1 [Compound A-179]", "6.52 to 7.00"]
]}

Form field: reported pIC50 of COCCOc1ccc(C(=O)Nc2cc(-c3nc4ccccc4[nH]3)[nH]n2)cc1C [Compound A-94]
> 7.00

Form field: reported pIC50 of Cn1nc(NC(=O)c2ccc(N3CCNC(C)(C)C3)nc2)cc1-c1nc2ccccc2[nH]1 [Compound A-280]
> 7.00

Form field: reported pIC50 of O=C(Nc1cc(-c2nc3cc(F)ccc3[nH]2)[nH]n1)c1ccc(N2CCOCC2)nc1 [Compound A-82]
> 7.00

Form field: reported pIC50 of CN(C1CCN(c2ccc(C(=O)Nc3cc(-c4nc5ccccc5[nH]4)[nH]n3)cn2)CC1)S(C)(=O)=O [Compound A-169]
6.52 to 7.00

Form field: reported pIC50 of CC(=O)N1CCN(c2ccc(C(=O)Nc3cc(-c4nc5ccccc5[nH]4)n(C)n3)cn2)CC1CO (stereo not drawn) [Compound A-254]
< 6.00
